The measurements presented in this section are drawn from patent US11298363B2.

- study_system: human vasopressin V1a receptor (Homo sapiens, UniProt P37288)
- Sequence (P37288 whole entry): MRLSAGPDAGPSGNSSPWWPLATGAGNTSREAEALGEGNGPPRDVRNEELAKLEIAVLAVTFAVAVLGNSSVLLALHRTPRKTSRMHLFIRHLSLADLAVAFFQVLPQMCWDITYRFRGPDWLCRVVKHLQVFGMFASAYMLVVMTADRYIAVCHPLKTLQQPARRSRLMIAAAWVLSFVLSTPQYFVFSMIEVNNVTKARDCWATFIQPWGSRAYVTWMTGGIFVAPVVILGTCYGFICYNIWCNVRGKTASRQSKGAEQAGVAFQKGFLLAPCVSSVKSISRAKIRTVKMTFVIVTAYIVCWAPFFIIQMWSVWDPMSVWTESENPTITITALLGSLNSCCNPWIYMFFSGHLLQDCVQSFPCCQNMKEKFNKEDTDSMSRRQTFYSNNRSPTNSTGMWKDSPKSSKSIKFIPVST
- experimental_details: Human vasopressin V1a receptor binding assay
- measurement_setup: 1321N1 cell membranes, [3H]vasopressin; read-out: Ki (nM) on hV1a cell line
measured_attribute: Ki (nM)
Unit nM implied. Number only.

Study these solved cases before continuing.
{"compound": "NC1Cc2cc(Br)ccc2-n2c(nnc2[C@H]2CC[C@H](Oc3ccccn3)CC2)C1 (stereo partly drawn)", "Ki [nM]": 1.4}
{"compound": "COc1ccc(CN[C@H]2CC[C@H](c3nnc4n3-c3ccc(Cl)cc3CC3(C4)OCCO3)CC2)cc1", "Ki [nM]": 1}
{"compound": "CC(C)NC1Cc2cc(Cl)ccc2-n2c(nnc2[C@H]2CC[C@H](N3CCOCC3)CC2)C1 (stereo partly drawn)", "Ki [nM]": 26.5}
{"compound": "OC1Cc2cc(Cl)ccc2-n2c(nnc2N2CCC(c3ncccc3Cl)CC2)C1 (stereo not drawn)", "Ki [nM]": 1.6}
{"compound": "Clc1ccc2c(c1)CC1(Cc3nnc([C@H]4CCN(Cc5ccccn5)C4)n3-2)OCCO1", "Ki [nM]": 0.7}

Req: May I ask what Ki has been recorded for COC1Cc2cc(Cl)ccc2-n2c(nnc2N2CCN(c3ncccc3Cl)CC2)C1 (stereo not drawn) ?
Resp: 0.8

Req: May I ask what Ki has been recorded for Clc1ccc2c(c1)C[C@H](NCC1CC1)Cc1nnc([C@H]3CC[C@H](Oc4ccccn4)CC3)n1-2 ?
Resp: 2.2

Req: May I ask what Ki has been recorded for COC1Cc2cc(Cl)ccc2-n2c(nnc2[C@H]2CC[C@@H](N3CCN(C)CC3)CC2)C1 (stereo partly drawn) ?
Resp: 102

Req: May I ask what Ki has been recorded for NCC(=O)N[C@H]1Cc2cc(Cl)ccc2-n2c(nnc2[C@H]2CC[C@H](Oc3ccccn3)CC2)C1 ?
Resp: 32

Req: May I ask what Ki has been recorded for N[C@@H]1Cc2cc(Cl)ccc2-n2c(nnc2[C@H]2CC[C@H](Oc3ccccn3)CC2)C1 ?
Resp: 1.3

Req: May I ask what Ki has been recorded for COc1ccc(CN(C)[C@H]2CC[C@H](c3nnc4n3-c3ccc(Cl)cc3CC3(C4)OCCO3)CC2)cc1 ?
Resp: 0.7

Req: May I ask what Ki has been recorded for CCN(C)[C@H]1Cc2cc(Cl)ccc2-n2c(nnc2[C@H]2CC[C@H](Oc3ccccn3)CC2)C1 ?
Resp: 0.4

Req: May I ask what Ki has been recorded for NCC(=O)N[C@@H]1Cc2cc(Cl)ccc2-n2c(nnc2[C@H]2CC[C@H](Oc3ccccn3)CC2)C1 ?
Resp: 0.8

Req: May I ask what Ki has been recorded for CC(C)(O)C(=O)N[C@H]1Cc2cc(Cl)ccc2-n2c(nnc2[C@H]2CC[C@H](Oc3ccccn3)CC2)C1 ?
Resp: 8

Req: May I ask what Ki has been recorded for CC(C)(C)OC(=O)NC1Cc2cc(F)ccc2-n2c(nnc2[C@H]2CC[C@H](Oc3ccccn3)CC2)C1 (stereo partly drawn) ?
Resp: 5

Req: May I ask what Ki has been recorded for Clc1ccc2c(c1)CC1(Cc3nnc([C@@H]4CCN(Cc5ccccn5)C4)n3-2)OCCO1 ?
Resp: 0.5

Req: May I ask what Ki has been recorded for Clc1ccc2c(c1)C[C@H](N1CCCCC1)Cc1nnc([C@H]3CC[C@H](Oc4ccccn4)CC3)n1-2 ?
Resp: 2.8

====

- study_system: human vasopressin V1a receptor (Homo sapiens, UniProt P37288)
- experimental_details: Functional assay on human vasopressin V1a receptor expressing cell line (intracellular Ca2+ fluorescence)
- Format: cell-based
- measurement_setup: 1321N1 cells, (Arg8)-vasopressin at EC80; read-out: IC50 (nM) on hV1a cell line
measured_attribute: log10 IC50 (log10 of the value in nM)
Parameter value (number): base-10 log of IC50 in nM.

Study these solved cases before continuing.
{"compound": "O=C([C@H]1CC[C@H](c2nnc3n2-c2ccc(Cl)cc2CC2(C3)OCCO2)CC1)N1CCOCC1", "study_system": "human vasopressin V1a receptor (Homo sapiens, UniProt P37288)", "recorded_measurement": 0.69}
{"compound": "CC(=O)NC1Cc2cc(Cl)ccc2-n2c(nnc2[C@H]2CC[C@H](Oc3ccccn3)CC2)C1 (stereo partly drawn)", "study_system": "human vasopressin V1a receptor (Homo sapiens, UniProt P37288)", "recorded_measurement": 0.48}
{"compound": "CN([C@H]1Cc2cc(Cl)ccc2-n2c(nnc2[C@H]2CC[C@H](Oc3ccccn3)CC2)C1)S(C)(=O)=O", "study_system": "human vasopressin V1a receptor (Homo sapiens, UniProt P37288)", "recorded_measurement": 0.34}
{"compound": "Clc1ccc2c(c1)C[C@@H](N1CCOCC1)Cc1nnc([C@H]3CC[C@H](Oc4ccccn4)CC3)n1-2", "study_system": "human vasopressin V1a receptor (Homo sapiens, UniProt P37288)", "recorded_measurement": 0.41}
{"compound": "CCN(C)[C@H]1Cc2cc(Cl)ccc2-n2c(nnc2[C@H]2CC[C@H](Oc3ccccn3)CC2)C1", "study_system": "human vasopressin V1a receptor (Homo sapiens, UniProt P37288)", "recorded_measurement": 0.69}

Could you now consider this next compound?
Req: May I ask what log10 IC50 has been recorded for Clc1ccc2c(c1)CC(NC1CCC1)Cc1nnc([C@H]3CC[C@H](Oc4ccccn4)CC3)n1-2 (stereo partly drawn) ?
Resp: 0.85

====

- study_system: human vasopressin V1a receptor (Homo sapiens, UniProt P37288)
- experimental_details: Functional assay on human vasopressin V1a receptor expressing cell line (intracellular Ca2+ fluorescence)
- Format: cell-based
- measurement_setup: 1321N1 cells, (Arg8)-vasopressin at EC80; read-out: IC50 (nM) on hV1a cell line
# log10(IC50) annotations
Parameter value (number): base-10 log of IC50 in nM.

Study these solved cases before continuing.
{"compound": "O=C(N[C@H]1Cc2cc(Cl)ccc2-n2c(nnc2[C@H]2CC[C@H](Oc3ccccn3)CC2)C1)c1ccc(F)cc1", "study_system": "human vasopressin V1a receptor (Homo sapiens, UniProt P37288)", "log10(IC50)": 2.72}
{"compound": "COC1Cc2cc(Cl)ccc2-n2c(nnc2[C@H]2CC[C@H](Oc3ccccn3)CC2)C1 (mixture of isomers)", "study_system": "human vasopressin V1a receptor (Homo sapiens, UniProt P37288)", "log10(IC50)": 0.15}
{"compound": "CCO[C@]1(C)CC[C@@H](c2nnc3n2-c2ccc(Cl)cc2CC(N(C)C)C3)CC1 (stereo partly drawn)", "study_system": "human vasopressin V1a receptor (Homo sapiens, UniProt P37288)", "log10(IC50)": 1.76}

Req: Notebook: pull reported log10(IC50) for human vasopressin V1a receptor (Homo sapiens, UniProt P37288), entry NC1Cc2cc(Cl)ccc2-n2c(nnc2[C@H]2CC[C@H](Oc3ccccn3)CC2)C1 (stereo partly drawn)
Resp: 0.95

Req: Notebook: pull reported log10(IC50) for human vasopressin V1a receptor (Homo sapiens, UniProt P37288), entry CN(C)C1Cc2ccccc2-n2c(nnc2[C@H]2CC[C@H](Oc3ccccn3)CC2)C1 (stereo partly drawn)
Resp: 1.41

====

# Ki annotations
- study_system: human vasopressin V1a receptor (Homo sapiens)
- experimental_details: Human vasopressin V1a receptor binding assay
- measurement_setup: 1321N1 cell membranes, [3H]vasopressin; read-out: Ki (nM) on hV1a cell line
Unit nM implied. Number only.

Study these solved cases before continuing.
{"compound": "Clc1ccc2c(c1)CC1(Cc3nnc(N4CCC(N5CCCCC5)CC4)n3-2)OCCO1 [Example 94]", "measure_unit": "nM", "Ki": 2}
{"compound": "CC[C@]1(OC)CC[C@H](c2nnc3n2-c2ccc(Cl)cc2CC(N(C)C)C3)CC1 (stereo partly shown) [Example 233]", "measure_unit": "nM", "Ki": 6.9}
{"compound": "CC(C)(C)C(=O)N[C@H]1Cc2cc(Cl)ccc2-n2c(nnc2[C@H]2CC[C@H](Oc3ccccn3)CC2)C1 [Example 118]", "measure_unit": "nM", "Ki": 66}

Req: May I ask what Ki has been recorded for COC1Cc2cc(Cl)ccc2-n2c(nnc2[C@H]2CC[C@@H](N3CCCC3=O)CC2)C1 (stereo partly shown) [Example 218] ?
Resp: 97

====

- study_system: mouse V1a receptor (Mus musculus, UniProt Q62463)
- Sequence (Q62463 whole entry): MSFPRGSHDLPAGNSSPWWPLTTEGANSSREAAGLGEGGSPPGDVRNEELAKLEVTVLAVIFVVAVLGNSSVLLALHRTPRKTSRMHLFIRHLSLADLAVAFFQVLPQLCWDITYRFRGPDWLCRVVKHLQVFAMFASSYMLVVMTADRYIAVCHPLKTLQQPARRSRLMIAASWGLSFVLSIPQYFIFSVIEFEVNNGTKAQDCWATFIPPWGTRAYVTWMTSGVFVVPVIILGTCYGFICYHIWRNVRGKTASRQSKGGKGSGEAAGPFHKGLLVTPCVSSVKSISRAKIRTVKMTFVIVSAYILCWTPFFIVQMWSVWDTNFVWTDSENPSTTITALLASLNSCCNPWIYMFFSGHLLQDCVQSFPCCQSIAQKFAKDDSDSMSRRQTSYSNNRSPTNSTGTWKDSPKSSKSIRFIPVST
- experimental_details: Functional V1a in vivo test: inhibition of oxytocin-induced scratching behaviour
- measurement_setup: mice, 10 mg/kg p.o. pretreatment
Response key: Yes means inhibition (%) of oxytocin-induced scratching behaviour response >= 40%; No means inhibition (%) of oxytocin-induced scratching behaviour response < 40%.

{"molecule": "O=C(N[C@@H]1Cc2cc(Cl)ccc2-n2c(nnc2[C@H]2CC[C@H](Oc3ccccn3)CC2)C1)C1CC1", "study_system": "mouse V1a receptor (Mus musculus, UniProt Q62463)", "category": "Yes"}

Req: Please indicate if the recorded inhibition (%) of oxytocin-induced scratching behaviour response for NCC(=O)N[C@@H]1Cc2cc(Cl)ccc2-n2c(nnc2[C@H]2CC[C@H](Oc3ccccn3)CC2)C1 meets or exceeds 40%.
Resp: No

Req: Please indicate if the recorded inhibition (%) of oxytocin-induced scratching behaviour response for CN[C@@H]1Cc2cc(Cl)ccc2-n2c(nnc2[C@H]2CC[C@H](Oc3ccccn3)CC2)C1 meets or exceeds 40%.
Resp: Yes

Req: Please indicate if the recorded inhibition (%) of oxytocin-induced scratching behaviour response for CO[C@@H]1Cc2cc(Cl)ccc2-n2c(nnc2[C@H]2CC[C@H](Oc3ccccn3)CC2)C1 (single isomer, unassigned) meets or exceeds 40%.
Resp: Yes
